Biological target: HLA-A*02:01 (Homo sapiens, UniProt P04439, D140Y/D185E/D98H/E176V/E277Q/G131W/G231S/I119V/I121R/I166T/I218V/L300P/L318F/N151K/N90K/P208A/P217A/Q86G/Q94H/R138H/R169H/T345S)
Assay: MHC binding assay: UV-ligand exchange and β2m ELISA (peptide exchange yield, Table 7)
Details: binding of HLA-class I restricted peptides to HLA-A*02:01, UV-ligand exchange
Text: Candidate peptides for T cell based therapies according to the present invention were further tested for their MHC binding capacity (affinity). The individual peptide-MHC complexes were produced by UV-ligand exchange, where a UV-sensitive peptide is cleaved upon UV-irradiation, and exchanged with the peptide of interest as analyzed. Only peptide candidates that can effectively bind and stabilize the peptide-receptive MHC molecules prevent dissociation of the MHC complexes. […]
measurementKind: Peptide exchange (MHC class I binding score, peptide exchange yield)

Some solved cases for reference:
substance	experimentalValue
20 (ALVEKGEFAL; listed as Homo sapiens) [compound 20]	++ (≥20% = ++)
115 (ILHGEVNKV; listed as Homo sapiens) [compound 115]	++ (≥20% = ++)
96 (ALDTTRHEL; listed as Homo sapiens) [compound 96]	++ (≥20% = ++)
263 (SIIEYLPTL; listed as Homo sapiens) [compound 263]	+++ (≥50% = +++)
51 (LDSEALLTL; listed as Homo sapiens) [compound 51]	++ (≥20% = ++)

Ask: Complete the entry with Peptide exchange (MHC class I binding score, peptide exchange yield) for 282 (SLYALHVKA; listed as Homo sapiens) [compound 282]
Reply: ++ (≥20% = ++)

Ask: Complete the entry with Peptide exchange (MHC class I binding score, peptide exchange yield) for 238 (HLQEKLQSL; listed as Homo sapiens) [compound 238]
Reply: ++ (≥20% = ++)

Ask: Complete the entry with Peptide exchange (MHC class I binding score, peptide exchange yield) for 274 (TLYNPERTITV; listed as Homo sapiens) [compound 274]
Reply: +++ (≥50% = +++)

Ask: Complete the entry with Peptide exchange (MHC class I binding score, peptide exchange yield) for 5 (GLVDIMVHL; listed as Homo sapiens) [compound 5]
Reply: +++ (≥50% = +++)

Ask: Complete the entry with Peptide exchange (MHC class I binding score, peptide exchange yield) for 279 (VLMDEGAVLTL; listed as Homo sapiens) [compound 279]
Reply: ++ (≥20% = ++)

Ask: Complete the entry with Peptide exchange (MHC class I binding score, peptide exchange yield) for 77 (ALYGNVQQV; listed as Homo sapiens) [compound 77]
Reply: +++ (≥50% = +++)

Ask: Complete the entry with Peptide exchange (MHC class I binding score, peptide exchange yield) for 136 (LLWDAPAKC; listed as Homo sapiens) [compound 136]
Reply: +++ (≥50% = +++)

Ask: Complete the entry with Peptide exchange (MHC class I binding score, peptide exchange yield) for 76 (FTAEFLEKV; listed as Homo sapiens) [compound 76]
Reply: +++ (≥50% = +++)

Ask: Complete the entry with Peptide exchange (MHC class I binding score, peptide exchange yield) for 215 (QIADIVTSV; listed as Homo sapiens) [compound 215]
Reply: ++ (≥20% = ++)

Ask: Complete the entry with Peptide exchange (MHC class I binding score, peptide exchange yield) for 81 (ILAEEPIYI; listed as Homo sapiens) [compound 81]
Reply: ++ (≥20% = ++)

Ask: Complete the entry with Peptide exchange (MHC class I binding score, peptide exchange yield) for 10 (QLIEKNWLL; listed as Homo sapiens) [compound 10]
Reply: +++ (≥50% = +++)

Ask: Complete the entry with Peptide exchange (MHC class I binding score, peptide exchange yield) for 91 (LLPSIFLMV; listed as Homo sapiens) [compound 91]
Reply: ++ (≥20% = ++)

Ask: Complete the entry with Peptide exchange (MHC class I binding score, peptide exchange yield) for 194 (KLLEEVQLL; listed as Homo sapiens) [compound 194]
Reply: ++ (≥20% = ++)

Ask: Complete the entry with Peptide exchange (MHC class I binding score, peptide exchange yield) for 231 (LLDDIFIRL; listed as Homo sapiens) [compound 231]
Reply: +++ (≥50% = +++)

Ask: Complete the entry with Peptide exchange (MHC class I binding score, peptide exchange yield) for 284 (KLMDPGSLPPL; listed as Homo sapiens) [compound 284]
Reply: ++ (≥20% = ++)

Ask: Complete the entry with Peptide exchange (MHC class I binding score, peptide exchange yield) for 93 (RLYGYFHDA; listed as Homo sapiens) [compound 93]
Reply: ++ (≥20% = ++)

Ask: Complete the entry with Peptide exchange (MHC class I binding score, peptide exchange yield) for 153 (KLVELEHTL; listed as Homo sapiens) [compound 153]
Reply: +++ (≥50% = +++)

Ask: Complete the entry with Peptide exchange (MHC class I binding score, peptide exchange yield) for 119 (SLIEESEEL; listed as Homo sapiens) [compound 119]
Reply: ++ (≥20% = ++)

Ask: Complete the entry with Peptide exchange (MHC class I binding score, peptide exchange yield) for 138 (GIINKLVTV; listed as Homo sapiens) [compound 138]
Reply: ++ (≥20% = ++)

Ask: Complete the entry with Peptide exchange (MHC class I binding score, peptide exchange yield) for 26 (VLDGKVAVV; listed as Homo sapiens) [compound 26]
Reply: +++ (≥50% = +++)

The values you see were collected from patent US9994628B2.
